# TARGET OR TEST SYSTEM: T1, human NPY2 receptor (human, UniProt P49146)
# T1 sequence: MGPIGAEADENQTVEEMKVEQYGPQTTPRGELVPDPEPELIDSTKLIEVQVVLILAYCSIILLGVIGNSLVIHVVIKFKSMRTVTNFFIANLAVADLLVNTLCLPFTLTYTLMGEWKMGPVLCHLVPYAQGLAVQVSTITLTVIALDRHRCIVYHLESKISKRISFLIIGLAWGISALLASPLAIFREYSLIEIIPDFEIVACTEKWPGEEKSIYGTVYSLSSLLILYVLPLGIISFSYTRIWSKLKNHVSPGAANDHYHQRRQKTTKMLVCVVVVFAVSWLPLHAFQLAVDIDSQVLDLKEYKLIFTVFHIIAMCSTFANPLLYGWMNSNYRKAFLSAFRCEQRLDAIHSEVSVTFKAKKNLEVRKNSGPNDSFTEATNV
# PROCEDURE DETAILS: radioligand binding competition (125I-PYY(1-36)) on human NPY2R membranes, filtration
Numbered stars: 1 amine (or outer) side, 2 acyl side, 3 side chain; on linkers, the order of the positions; unused ones are H or OH. Side chains are listed from the residue outwards. * marks the point of attachment. C18 diacid = O=C(O)CCCCCCCCCCCCCCCCC(=O)*; γGlu = O=C(O)[C@H](CCC(=O)[*:2])N[*:1]; Isovaleryl = CC(C)CC(=O)*; AEEA = NCCOCCOCC(=O)O; Ahx = NCCCCCC(=O)O
Quick list: Ki per entry.
Your answer is read as nM, so omit the unit and give the number.

Recorded Ki, per entry:
| BINDER | UNIT TEXT | Ki |
| --- | --- | --- |
| APEKPGEDASPEELQRYYVSLRHYYHWLTRQRY (not fully specified; N-terminal iVal (3-methylbutanoyl); the Lys (4th residue) carries C18DA-gGlu-OEG-OEG; C-terminal amide (-NH2)) [Reference 2] | nM | 0.4 |
| Isovaleryl-APEK([AEEA-AEEA-γGlu-C18 diacid])PEADASPEEIQRYYVSLRHYYNWLTRQRY-NH2 [Compound J] | nM | 0.24 |
| Isovaleryl-APEK([Ahx-γGlu-C18 diacid])PEADATPEEIQRYYVSLRHYYNWLTRQRY-NH2 [Compound K] | nM | 1.04 |
| Isovaleryl-APAK([AEEA-AEEA-γGlu-C18 diacid])PEEDATPEELQRYYVSLRHYYNWLTRQRY-NH2 [Compound A] | nM | 0.66 |
| Isovaleryl-RPEKPEEDASPEELQRYYVSLRHYYNWLTRQRY-NH2 (not fully specified (residue 4); printed as iVal-RPEK(C18DA-gGlu-OEG-OEG)PEEDASPEELQRYYVSLRHYYNWLTRQRY-NH2) [Reference 3] | nM | 0.46 |

Item under review: Isovaleryl-APEK([AEEA-AEEA-γGlu-C18 diacid])PEEDATPEELQKYYVSLRHYYNWLTRQRY-NH2 [Compound H] . Reported Ki?
1.96

Item under review: Isovaleryl-APEKPEEDASPEEIQQYYVSLRHYYNWLTRQRY-NH2 (not fully specified (residue 4); printed as iVal-APEK(C18DA-gGlu-OEG-OEG)PEEDASPEEIQQYYVSLRHYYNWLTRQRY-NH2) [Reference 1] . Reported Ki?
0.74

Item under review: Isovaleryl-APAK([AEEA-AEEA-γGlu-C18 diacid])PEEDASPEEIQRYYVSLRHYYNWLTRQRY-NH2 [Compound E] . Reported Ki?
0.55
